Value source: PubChem BioAssay (NCI)

A collection of molecules and their measured growth
- System: MCF7 breast
- TEST_NAME: NCI-60 one-dose screen, 48 h (100 = growth as untreated, 0 = no growth, -100 = all killed)
- PROTOCOL_CONDITIONS: 10 µM unless noted
- Protocol: Growth inhibition of the MCF7 human tumor cell line is measured as a screen for anti-cancer activity. Cells are grown in 96 well plates and exposed to the test compound for 48 hours. Compounds are tested at a single concentration, which is 10^-5 M for most compounds. The reported endpoint is percent growth (GI% or GIPRCNT), where numbers from 0 - 100% represent growth inhibition, and numbers from -100% - 0 represent cell death. For example, a value of 40 represents 60% growth inhibition. […]
About 83,000 compounds went through this panel and 20% of them were active in at least one assay; those are over-represented in the sample as a whole.

MOLECULE: N#CC1CCc2c(c(-c3ccc4nc(N)sc4c3)nc3ccc4[nH]ncc4c23)C1 (stereo not given)
growth, %: 21.7
--
MOLECULE: CCC1S/C(=N\N=C(\C)c2cc3cc(Cl)ccc3o2)N(c2ccccc2)C1=O (stereo not given)
growth, %: 100
--
MOLECULE: CC(=O)c1sc2sc(C(C)=O)c(C)c2c1C
growth, %: 73.1
--
MOLECULE: O=C(/C=C/c1ccc(Oc2ccc(Br)cc2)cc1)c1ccc(Br)cc1
growth, %: 73
--
MOLECULE: O=C(O)/C=C/C(=O)Nc1cccc(Cn2nnc3cc(Cl)c(Cl)cc32)c1
growth, %: 89

----------
- System: DU-145 prostate
- TEST_NAME: NCI-60 one-dose screen, 48 h (100 = growth as untreated, 0 = no growth, -100 = all killed)
- PROTOCOL_CONDITIONS: 10 µM unless noted
About 83,000 compounds went through this panel and 20% of them were active in at least one assay; those are over-represented in the sample as a whole.

COMPOUND: C=CCOC(=O)C1=C(C)N(CC)C(=O)NC1c1c(Cl)n(C)c2ccccc12 (stereo not drawn)
growth, %: 106
//
COMPOUND: CC1(C)CC2=C3C=C[C@@H]4[C@@]5(C)CCC(=O)C(C)(C)[C@@H]5CC[C@@]4(C)[C@]3(C)CC[C@@]2(C(=O)O)C[C@H]1O
growth, %: 65
//
COMPOUND: COc1cc(OC)c2sc(-c3ccc(-n4cncc4-c4cc(OC)c(OC)c(OC)c4)cc3)nc2c1
growth, %: 78.3
//
COMPOUND: COc1ccc(/C=C/C(=O)c2cc(OC)c(OC)c(OC)c2)cc1OCC(=O)Nc1nc2ccc(OC(F)(F)F)cc2s1
growth, %: -30.3
//
COMPOUND: COc1cc(OC)c(/C=C/C(=O)c2c(O)cc(OC)c(C3CCN(C)CC3)c2OC)c(OC)c1
growth, %: -36.2
//
COMPOUND: COc1cc(-c2nc3cc(Cl)c(Cl)cc3[nH]2)ccc1OCC(=O)N=Nc1c(O)[nH]c2ccc(Cl)cc12
growth, %: 6.51
//
COMPOUND: COc1ccc(N2CCC(=S)NC2=S)cc1
growth, %: 108
//
COMPOUND: C/C=C(\C)C(=O)N[C@H]1C(O)C[C@]2(C)C3CC[C@@]4(C)C(CC[C@@H]4C(C)N(C)C)C3CCC2C1O (stereo partly drawn)
growth, %: 74.6
